Cited source for all entries: PubChem BioAssay

Protocol Notes: CREB reporter modulators without forskolin, primary screen, cell-based, PC12, CRE-LacZ reporter, unstimulated (AID 1145)
Condition Description: no forskolin, luminescence, 4.5 h, higher = more signal, called active from +8 up or from −8 down
Measured Attribute: z-score
Write the value as a bare number.

• CC(=CC1CCCCC1)[C@@H](NC(=O)c1ccc(C(F)(F)F)cc1)c1ccc(-c2ccccc2)cc1 = 0.587
• COc1ccc(C#Cc2ccc3c(c2)[C@]2(C(=O)N3)[C@H](C(=O)NC[C@H](O)c3ccccc3)[C@H]3C(=O)O[C@H](c4ccccc4)[C@H](c4ccccc4)N3[C@@H]2c2ccc(OCCO)cc2)cc1 = 0.478
• COC(=O)C1=CC(CCCO)=CC(C2CC2)N(Cc2sc3ccccc3c2Cl)C=C1C(=O)OC (centres undefined) = -0.464
• COc1cc2c(cc1O)C(C)N(Cc1cccc(OC(F)(F)F)c1)CC2 (centres undefined) = 0.506

(Q) Give the measured z-score of O=C1O[C@H](c2ccccc2)[C@H](c2ccccc2)N2[C@H]1[C@@H](C(=O)NC[C@H](O)c1ccccc1)[C@]1(C(=O)Nc3ccc(C#CCCO)cc31)[C@H]2c1ccc(O)cc1 .
(A) -0.329

(Q) And the next one, C=CC(=C)C1=CCO[C@@H]1[C@H]1CCCN1S(=O)(=O)c1ccccc1[N+](=O)[O-] ?
(A) 0.124

(Q) And the next one, COc1c(C)cc(-c2cc3c(c(-c4ccc(Oc5ccccc5)cc4)n2)[Si](C(C)C)(C(C)C)OC3)cc1C ?
(A) 0.148

(Q) And the next one, C=CCNC(=O)[C@@H]1[C@H]2C(=O)O[C@H](c3ccccc3)[C@H](c3ccccc3)N2[C@H](c2ccc(OCCO)cc2)[C@@]12C(=O)Nc1ccccc12 ?
(A) -0.905

(Q) And the next one, CO[C@H]1O[C@H](CO)[C@@H](OC(=O)Nc2ccc(Oc3ccccc3)cc2)[C@H](OC(=O)Nc2ccccc2)[C@H]1OC(=O)Nc1ccccc1 ?
(A) 0.512

(Q) And the next one, COCC1=C2[C@@H](CCc3ccccc3)OB(O)C[C@@H]2[C@@H]2C(=O)N(Cc3ccccc3)C(=O)[C@@H]2C1 ?
(A) 0.663

(Q) And the next one, CCOC(=O)C1=CCC(c2ccc(C#N)cc2)N(S(=O)(=O)c2ccc(C)cc2)C1 (centres undefined) ?
(A) 0.22

(Q) And the next one, [N-]=[N+]=Nc1ccccc1[C@@H]1OC(c2ccc(OCCCO)cc2)=N[C@]1(CCS(=O)(=O)c1ccccc1)C(=O)N1CCOCC1 ?
(A) 1.8

(Q) And the next one, NC(=O)NCC#Cc1ccc2c(c1)[C@]1(C(=O)N2)[C@H](C(=O)NC[C@H](O)c2ccccc2)[C@H]2C(=O)O[C@H](c3ccccc3)[C@H](c3ccccc3)N2[C@@H]1c1ccc(O)cc1 ?
(A) -0.465

(Q) And the next one, CC(C)C(=C=CC[C@H](O)c1cccc(OCCO)c1)C[C@H](O)COCc1ccccc1 ?
(A) 1.82

(Q) And the next one, CC(C)NC(=O)[C@@H]1c2ccccc2C(=O)N(Cc2ccccc2)[C@H]1c1ccc(CO)cc1 ?
(A) 0.0279

====

Assayed System: Focal adhesion kinase 1 (Homo sapiens) (UniProt Q05397)
Sequence (Q05397 whole entry, looked up): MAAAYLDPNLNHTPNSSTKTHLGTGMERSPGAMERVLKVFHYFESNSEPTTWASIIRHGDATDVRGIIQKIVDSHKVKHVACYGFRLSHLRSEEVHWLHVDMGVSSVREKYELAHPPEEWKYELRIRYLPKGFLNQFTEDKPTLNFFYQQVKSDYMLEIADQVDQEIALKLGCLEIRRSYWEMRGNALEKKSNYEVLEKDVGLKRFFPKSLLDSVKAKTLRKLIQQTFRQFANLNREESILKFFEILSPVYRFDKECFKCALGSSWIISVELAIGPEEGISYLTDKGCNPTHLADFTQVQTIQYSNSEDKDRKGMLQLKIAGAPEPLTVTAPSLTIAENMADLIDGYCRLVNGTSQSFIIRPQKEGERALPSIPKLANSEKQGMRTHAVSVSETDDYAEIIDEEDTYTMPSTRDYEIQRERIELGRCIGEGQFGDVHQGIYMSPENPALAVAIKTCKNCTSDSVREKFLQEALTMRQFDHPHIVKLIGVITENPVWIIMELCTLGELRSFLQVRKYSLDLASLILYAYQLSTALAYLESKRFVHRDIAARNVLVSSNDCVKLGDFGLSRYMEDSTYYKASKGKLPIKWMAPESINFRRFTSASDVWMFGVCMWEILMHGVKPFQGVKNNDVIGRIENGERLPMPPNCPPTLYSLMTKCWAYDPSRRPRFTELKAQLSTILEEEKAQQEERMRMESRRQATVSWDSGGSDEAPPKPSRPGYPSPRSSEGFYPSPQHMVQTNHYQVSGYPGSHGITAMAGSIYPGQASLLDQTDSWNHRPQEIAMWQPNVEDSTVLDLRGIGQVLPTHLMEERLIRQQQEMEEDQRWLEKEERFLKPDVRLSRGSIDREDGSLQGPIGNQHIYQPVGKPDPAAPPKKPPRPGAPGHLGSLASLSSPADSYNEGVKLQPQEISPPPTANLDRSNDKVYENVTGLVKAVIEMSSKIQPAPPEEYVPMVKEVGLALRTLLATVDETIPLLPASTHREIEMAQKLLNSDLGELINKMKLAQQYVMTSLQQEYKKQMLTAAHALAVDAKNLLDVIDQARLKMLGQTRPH
Protocol Notes: small-molecule microarray binders of FAK, primary screen, biochemical, 635/667 nm fluorescence, BSA, DTT (AID 1130);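 note: composite of spot emission at 667 nm and signal to noise over triplicate slides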
Condition Description: PTK2 binding, 635 nm fluorescence, higher = more signal
Measured Attribute: composite z-score

* Cc1ccc(S[C@]2(C(=O)NCC(C)C)CC(=O)N(Cc3ccccc3)[C@@H]2c2ccc(CO)cc2I)cc1 | 0.139
* CCN(CC)c1ccc(N2CC=CC34O[C@@H]5C=CCCOC(=O)C5[C@H]3C(=O)N(CCCCCO)[C@@H]4C2=O)cc1 (stereo partly drawn) | -0.172
* CCCCC=C[C@@H](NC(=O)c1ccc(C(=O)OC)cc1)c1ccccc1 | 0.694
* CCN(CC)c1ccc(N2CC=CC34O[C@@H]5/C=C\CCCOC(=O)C5[C@H]3C(=O)N(C(CO)C(C)C)[C@@H]4C2=O)cc1 (stereo partly drawn) | 0.409
* CCCC[C@H]1OB(O)C[C@H]2C1=C(C)C[C@H]1C(=O)N(Cc3ccccc3)C(=O)[C@H]12 | 0.553
* CCCCCN1CC=CC23O[C@@H]4/C=C\CCCOC(=O)C4[C@H]2C(=O)N(CCCCCCO)[C@@H]3C1=O (stereo partly drawn) | 0.929
* CCOC(=O)C1=C[C@@H](C(C)C)N(S(=O)(=O)c2ccc(C)cc2)[C@H]1c1ccc(C(C)C)cc1 | 1.54

# evaluate next
(Q) Give the measured composite z-score of O=C1C2C=CC(C(O)c3ccc(B(O)O)cc3)N(Nc3ccccc3)C2C(=O)N1c1ccccc1 (stereo not drawn) .
(A) 1.44
